# TEST METHOD NOTES: AUClast in Sprague-Dawley rat at 10 mg/kg, po measured up to 24 hrs by LC-MS/MS analysis
# Assay type: ADME, organism-based
# Parameters: route oral, dose 10 mg/kg, time <=24
# DETAILS: in vivo
Hi, to clarify the labels: condition met covers AUC(0-t) at 24 h from 200 µg·h/mL upward, condition not met covers anything below 200 µg·h/mL.

Identify whether the reported AUC(0-t) at 24 h of the following molecule is 200 µg·h/mL or greater: C/C(=C1/OC(=O)NC1=O)C(c1ccc(-c2ccc3cccc(F)c3c2)[nH]c1=O)C(C)C (stereo not given)
condition not met

Identify whether the reported AUC(0-t) at 24 h of the following molecule is 200 µg·h/mL or greater: CCC(/C=C1\OC(=O)NC1=O)(CC)c1ccc(-c2ccc3cccc(F)c3c2)[nH]c1=O
condition met

Identify whether the reported AUC(0-t) at 24 h of the following molecule is 200 µg·h/mL or greater: CC(C)C(/C=C1\OC(=O)NC1=O)c1ccc(-c2ccc3cccc(F)c3c2)[nH]c1=O (stereo not given)
condition not met

Identify whether the reported AUC(0-t) at 24 h of the following molecule is 200 µg·h/mL or greater: CCn1ncc2c(F)cc(-c3ccc(C(/C=C4\OC(=O)NC4=O)(CC)CC)c(=O)[nH]3)cc21
condition not met

Identify whether the reported AUC(0-t) at 24 h of the following molecule is 200 µg·h/mL or greater: CC(C)[C@H](C[C@@H]1OC(=O)NC1=O)c1ccc(-c2ccc3cccc(F)c3c2)[nH]c1=O (relative stereo)
condition met

---

# TEST METHOD NOTES: Metabolic stability in rat liver microsomes assessed as intrinsic clearance half life
# Assay type: ADME, Microsome
I'd appreciate it if you could supply half-life values for the items below.
I only need the number, in h, no unit after it.

The value of half-life measured for the molecule CC(C)[C@@H](C[C@H]1SC(=O)NC1=O)c1ccc(-c2ccc3cccc(F)c3c2)[nH]c1=O (relative stereo) turned out to be 0.77

The value of half-life measured for the molecule CC(C)C(/C=C1/C(=O)NC(=O)N1C)c1ccc(-c2ccc3cccc(F)c3c2)[nH]c1=O (centres undefined) turned out to be 1.08

The value of half-life measured for the molecule CC(C)[C@H](C[C@H]1OC(=O)NC1=O)c1ccc(-c2ccc3cccc(F)c3c2)[nH]c1=O (relative stereo) turned out to be 0.95

The value of half-life measured for the molecule CC(C)C(/C=C1\SC(=O)NC1=O)c1ccc(-c2ccc3cccc(F)c3c2)[nH]c1=O (centres undefined) turned out to be 2.62

The value of half-life measured for the molecule CC(C)[C@H](C[C@@H]1OC(=O)NC1=O)c1ccc(-c2ccc3cccc(F)c3c2)[nH]c1=O (relative stereo) turned out to be 0.503

The value of half-life measured for the molecule CCc1cccc2ccc(-c3ccc(C(/C=C4\OC(=O)NC4=O)(CC)CC)c(=O)[nH]3)cc12 turned out to be 1.77

The value of half-life measured for the molecule CCC(/C=C1\OC(=O)NC1=O)(CC)c1ccc(-c2ccc3cccc(C(C)C)c3c2)[nH]c1=O turned out to be 1.88

The value of half-life measured for the molecule CCN1CCOc2ccc(-c3ccc(C(/C=C4\OC(=O)NC4=O)(CC)CC)c(=O)[nH]3)cc21 turned out to be 1.51

The value of half-life measured for the molecule CC(C)C(c1ccc(-c2ccc3cccc(F)c3c2)[nH]c1=O)C1NC(=O)NC1=O (centres undefined) turned out to be 0.145

The value of half-life measured for the molecule CC(C)C(c1ccc(-c2ccc3cccc(F)c3c2)[nH]c1=O)C1SC(=O)NC1=O (centres undefined) turned out to be 0.76

The value of half-life measured for the molecule CC(C)[C@@H](c1ccc(-c2ccc3cccc(F)c3c2)[nH]c1=O)[C@H]1OC(=O)NC1=O (relative stereo) turned out to be 1.93

The value of half-life measured for the molecule CCC(/C=C1\OC(=O)NC1=O)(CC)c1ccc(-c2ccc3cccc(C(F)(F)F)c3c2)[nH]c1=O turned out to be 1.09

The value of half-life measured for the molecule CC(C)[C@@H](c1ccc(-c2ccc3cccc(F)c3c2)[nH]c1=O)[C@@H]1OC(=O)NC1=O (relative stereo) turned out to be 1.27

The value of half-life measured for the molecule CC(C)C(c1ccc(-c2ccc3cccc(F)c3c2)[nH]c1=O)C1C(=O)NC(=O)N1C (centres undefined) turned out to be 0.263

The value of half-life measured for the molecule O=C1NC(=O)/C(=C/C(Cc2ccccc2)c2ccc(-c3ccc4cccc(F)c4c3)[nH]c2=O)O1 (centres undefined) turned out to be 2.96

The value of half-life measured for the molecule CC(C)[C@H](C[C@H]1SC(=O)NC1=O)c1ccc(-c2ccc3cccc(F)c3c2)[nH]c1=O (relative stereo) turned out to be 0.143

---

# TEST METHOD NOTES: Metabolic stability in human liver microsomes assessed as intrinsic clearance half life
# Type: ADME, Microsome
METRIC NAME: half-life

The value of half-life measured for the compound CC(C)[C@@H](c1ccc(-c2ccc3cccc(F)c3c2)[nH]c1=O)[C@@H]1OC(=O)NC1=O (relative stereo) turned out to be > 3 h

The value of half-life measured for the compound CC(C)/C(=C1\C(=O)NC(=O)N1C)c1ccc(-c2ccc3cccc(F)c3c2)[nH]c1=O turned out to be > 3 h

The value of half-life measured for the compound CC(C)[C@@H](C[C@H]1SC(=O)NC1=O)c1ccc(-c2ccc3cccc(F)c3c2)[nH]c1=O (relative stereo) turned out to be 1.24 h

The value of half-life measured for the compound O=C1NC(=O)/C(=C/C2(c3ccc(-c4ccc5cccc(F)c5c4)[nH]c3=O)CC2)O1 turned out to be 2.48 h

---

# TEST METHOD NOTES: Kinetic solubility of compound in PBS buffer
# Type: physicochemical
# DETAILS: read-out: Kinetic_solubility
METRIC NAME: solubility kinetic (µM)
I only need the number, in µM, no unit after it.

The value of solubility kinetic measured for the molecule CC(C)[C@H](C[C@@H]1OC(=O)NC1=O)c1ccc(-c2ccc3cccc(F)c3c2)[nH]c1=O (relative stereo) turned out to be 21.1

The value of solubility kinetic measured for the molecule CC(C)/C(=C1/SC(=O)NC1=O)c1ccc(-c2ccc3cccc(F)c3c2)[nH]c1=O turned out to be 23.3

The value of solubility kinetic measured for the molecule CC(C)[C@@H](c1ccc(-c2ccc3cccc(F)c3c2)[nH]c1=O)[C@H]1OC(=O)NC1=O (relative stereo) turned out to be 31.6

The value of solubility kinetic measured for the molecule CC(C)C(c1ccc(-c2ccc3cccc(F)c3c2)[nH]c1=O)C1C(=O)NC(=O)N1C (configuration not stated) turned out to be 17.9

The value of solubility kinetic measured for the molecule CC(C)C(c1ccc(-c2ccc3cccc(F)c3c2)[nH]c1=O)C1NC(=O)NC1=O (configuration not stated) turned out to be 10.6

The value of solubility kinetic measured for the molecule CC(C)C(/C=C1\SC(=O)NC1=O)c1ccc(-c2ccc3cccc(F)c3c2)[nH]c1=O (configuration not stated) turned out to be 25.6

The value of solubility kinetic measured for the molecule CC(C)[C@@H](c1ccc(-c2ccc3cccc(F)c3c2)[nH]c1=O)[C@@H]1OC(=O)NC1=O (relative stereo) turned out to be 27.4

The value of solubility kinetic measured for the molecule CC(C)[C@H](C[C@H]1SC(=O)NC1=O)c1ccc(-c2ccc3cccc(F)c3c2)[nH]c1=O (relative stereo) turned out to be 31.2

The value of solubility kinetic measured for the molecule CC(C)C(c1ccc(-c2ccc3cccc(F)c3c2)[nH]c1=O)C1SC(=O)NC1=O (configuration not stated) turned out to be 20.1

The value of solubility kinetic measured for the molecule CC(C)/C(=C1\C(=O)NC(=O)N1C)c1ccc(-c2ccc3cccc(F)c3c2)[nH]c1=O turned out to be 22.5

The value of solubility kinetic measured for the molecule O=C1NC(=O)/C(=C/C(c2ccccc2)c2ccc(-c3ccc4cccc(F)c4c3)[nH]c2=O)O1 (configuration not stated) turned out to be 32.8

The value of solubility kinetic measured for the molecule CC(C)C(CC1C(=O)NC(=O)N1C)c1ccc(-c2ccc3cccc(F)c3c2)[nH]c1=O (configuration not stated) turned out to be 33.6

The value of solubility kinetic measured for the molecule O=C1NC(=O)/C(=C/C(Cc2ccccc2)c2ccc(-c3ccc4cccc(F)c4c3)[nH]c2=O)O1 (configuration not stated) turned out to be 9.1

The value of solubility kinetic measured for the molecule CCN1CCOc2ccc(-c3ccc(C(/C=C4\OC(=O)NC4=O)(CC)CC)c(=O)[nH]3)cc21 turned out to be 24.1

The value of solubility kinetic measured for the molecule CC(C)(/C=C1\OC(=O)NC1=O)c1ccc(-c2ccc3cccc(F)c3c2)[nH]c1=O turned out to be 36.1

The value of solubility kinetic measured for the molecule CC(C)C(/C=C1\OC(=O)NC1=O)c1cc(Cl)c(-c2ccc3cccc(F)c3c2)[nH]c1=O (configuration not stated) turned out to be 21.5

The value of solubility kinetic measured for the molecule CC(C)C(/C=C1/C(=O)NC(=O)N1C)c1ccc(-c2ccc3cccc(F)c3c2)[nH]c1=O (configuration not stated) turned out to be 34.8

The value of solubility kinetic measured for the molecule O=C1NC(=O)/C(=C/C2(c3ccc(-c4ccc5cccc(F)c5c4)[nH]c3=O)CCCC2)O1 turned out to be 24.5

The value of solubility kinetic measured for the molecule CCC(/C=C1\OC(=O)NC1=O)(CC)c1ccc(-c2ccc3cccc(F)c3c2)[nH]c1=O turned out to be 32.6

The value of solubility kinetic measured for the molecule C/C(=C1/OC(=O)NC1=O)C(c1ccc(-c2ccc3cccc(F)c3c2)[nH]c1=O)C(C)C (configuration not stated) turned out to be 17.2

The value of solubility kinetic measured for the molecule CCC(CC)C(/C=C1\OC(=O)NC1=O)c1ccc(-c2ccc3cccc(F)c3c2)[nH]c1=O (configuration not stated) turned out to be 33.7

The value of solubility kinetic measured for the molecule CC(C)C(/C=C1\NC(=O)NC1=O)c1ccc(-c2ccc3cccc(F)c3c2)[nH]c1=O (configuration not stated) turned out to be 10.7

The value of solubility kinetic measured for the molecule CC(C)[C@@H](/C=C1\OC(=O)NC1=O)c1ccc(-c2ccc3cccc(F)c3c2)[nH]c1=O turned out to be 26.4

The value of solubility kinetic measured for the molecule CC(C)[C@@H](C[C@H]1SC(=O)NC1=O)c1ccc(-c2ccc3cccc(F)c3c2)[nH]c1=O (relative stereo) turned out to be 23.9

The value of solubility kinetic measured for the molecule O=C1NC(=O)/C(=C/C(c2ccc(-c3ccc4cccc(F)c4c3)[nH]c2=O)C2CC2)O1 (configuration not stated) turned out to be 30.8

The value of solubility kinetic measured for the molecule CC(C)[C@H](/C=C1\OC(=O)NC1=O)c1ccc(-c2ccc3cccc(F)c3c2)[nH]c1=O turned out to be 25.4

The value of solubility kinetic measured for the molecule CC(C)C(/C=C1\OC(=O)NC1=O)c1ccc(-c2ccc3cccc(F)c3c2)[nH]c1=O (configuration not stated) turned out to be 28

The value of solubility kinetic measured for the molecule Cc1cc(C(/C=C2\OC(=O)NC2=O)C(C)C)c(=O)[nH]c1-c1ccc2cccc(F)c2c1 (configuration not stated) turned out to be 35.7

The value of solubility kinetic measured for the molecule CC(C)[C@H](C[C@H]1OC(=O)NC1=O)c1ccc(-c2ccc3cccc(F)c3c2)[nH]c1=O (relative stereo) turned out to be 35.4

The value of solubility kinetic measured for the molecule CCn1ncc2c(F)cc(-c3ccc(C(/C=C4\OC(=O)NC4=O)(CC)CC)c(=O)[nH]3)cc21 turned out to be 30.8

The value of solubility kinetic measured for the molecule O=C1NC(=O)/C(=C/C2(c3ccc(-c4ccc5cccc(F)c5c4)[nH]c3=O)CC2)O1 turned out to be 33.4

The value of solubility kinetic measured for the molecule CC(C)C(CC1NC(=O)NC1=O)c1ccc(-c2ccc3cccc(F)c3c2)[nH]c1=O (configuration not stated) turned out to be 12.3
